# Assay Explanation: soluble fraction after stress (log2 fold change); higher = more stays soluble; pooled small domains, quantitative proteomics;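 further: 20 min heating vs room temperature control held 20 min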
# Run Parameters: stress: 75 degC
Recorded Metric: soluble fraction (log2)

| Monomer Sequence | Recorded Metric | Measured Number |
| --- | --- | --- |
| HMSGTYIVTVQANTLDIYKSMTSNDTIGKANKGDVFQILEDMGGGYAKVSYNDVEGYISIKDGDTSIDEM | soluble fraction (log2) | -0.389 |
| HMVLVLPGEMIHVQVIDEGKEMGQGVGYLDDGTMVVVENGLRHIGRAIDVQVTKVLQTNAGRMIFGQPIL | soluble fraction (log2) | -1.71 |
| HMEEFDLNAYITKINSAATLNALKQAYAEANSAALSVKDKDAQRKIIVEKDKRKAELIQETAG | soluble fraction (log2) | 0.453 |
| HMVGLKWYDTGNKKPPIGTEYKNTELSEALKGHDRKEFTWKELDVLGVNITDKEQYIVVGENYYTQV | soluble fraction (log2) | 0.0506 |
